measuredOn: MtrOtsA (Mycolicibacterium thermoresistibile, UniProt G7CGT2)
Sequence (G7CGT2 1-486): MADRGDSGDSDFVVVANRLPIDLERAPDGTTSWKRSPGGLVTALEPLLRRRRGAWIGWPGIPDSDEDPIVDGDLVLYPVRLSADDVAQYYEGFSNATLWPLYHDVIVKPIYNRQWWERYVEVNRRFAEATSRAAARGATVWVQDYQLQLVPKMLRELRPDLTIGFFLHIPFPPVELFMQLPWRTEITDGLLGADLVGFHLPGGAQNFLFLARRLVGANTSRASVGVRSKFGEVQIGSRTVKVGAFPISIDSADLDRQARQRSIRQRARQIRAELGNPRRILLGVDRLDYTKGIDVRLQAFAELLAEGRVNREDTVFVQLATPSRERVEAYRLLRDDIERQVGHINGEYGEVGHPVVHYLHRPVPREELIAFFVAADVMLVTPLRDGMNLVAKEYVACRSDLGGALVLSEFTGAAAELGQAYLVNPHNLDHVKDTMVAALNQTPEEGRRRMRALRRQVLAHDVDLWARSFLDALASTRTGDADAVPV
assayComment: biochemical
resultType: Kd
Entry format: amount then unit.

The measured Kd associated with "Nc1ncnc2c1ncn2[C@@H]1O[C@H](COP(=O)(O)OP(=O)(O)O[C@H]2O[C@H](CO)[C@@H](O)[C@H](O)[C@H]2O)[C@@H](O)[C@H]1O" reads 27.2 µM

###

measuredOn: M. thermoresistibile OtsA wild type (Mycolicibacterium thermoresistibile, UniProt G7CGT2)
assayComment: Effect of feedback inhibitors and allosteric regulators on OtsA activity (wild type)
Assay type: biochemical, Mycobacterium thermoresistibile
resultType: pIC50
By convention, pIC50 is the negative base-10 log of a molar concentration.

response.value for O=C(O)C(CO)OP(=O)(O)O (centres unmarked) (field: pIC50) = 2.64

Data origin: paper PMC6879718
